Emax reference
- test.system: human mAChR M1 (Homo sapiens, UniProt P11229)
- Sequence (P11229 whole entry): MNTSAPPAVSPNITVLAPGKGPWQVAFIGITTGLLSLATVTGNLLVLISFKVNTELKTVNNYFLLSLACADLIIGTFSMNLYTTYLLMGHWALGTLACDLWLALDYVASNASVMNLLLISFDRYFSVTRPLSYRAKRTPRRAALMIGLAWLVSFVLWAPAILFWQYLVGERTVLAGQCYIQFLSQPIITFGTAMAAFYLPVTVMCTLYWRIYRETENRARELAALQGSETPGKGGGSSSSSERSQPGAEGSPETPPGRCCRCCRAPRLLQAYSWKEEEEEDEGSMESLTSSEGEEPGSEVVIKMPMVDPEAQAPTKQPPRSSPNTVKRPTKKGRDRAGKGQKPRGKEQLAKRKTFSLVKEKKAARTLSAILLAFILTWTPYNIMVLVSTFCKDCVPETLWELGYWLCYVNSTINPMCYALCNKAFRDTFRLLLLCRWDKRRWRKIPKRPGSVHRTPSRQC
- test: mAChR M1 cell-based functional assay (calcium mobilization), PAM mode: increase in the EC20 acetylcholine response
// units = %; emit number, no label

Please review the following examples before continuing.
- [2H]C1([2H])c2ncccc2C(=O)N1Cc1c(F)cc(-c2ccnc3nn(C)cc23)cc1OCC(C)C [Compound 217]: 78
- [2H]C1([2H])c2ncccc2C(=O)N1Cc1c(F)cc(-c2cccc3nn(CF)cc23)cc1F [Compound 44]: 78

Q: Given the molecule [2H]C1([2H])c2ncccc2C(=O)N1Cc1ccc(-c2ccc(OCCOC(C)C)c3nn(C)cc23)cc1F [Compound 153] , what is its reported Emax?
Result: 79
